Here, each record is paired with measured normalized growth data.
# assay_procedure: chemical genetic growth profiling, strain panel (AID 1159580);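 further: tested at 20 µM; growth read once vehicle control cultures reached saturation at 30 °C; 1 = growth at the plate median or of vehicle wells; lower values mean less growth of the strain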
# details: S. cerevisiae deletion strains, growth OD, locus YEL061C, strain CIN8 (second series), hits give low values
In all, about 5,500 compounds went through this assay and about 2,000 (36%) were called active. Inconclusive results (about 18%) are left out. This is one part of the list.
Would you mind answering with just the numeric figure?

Some compounds with known normalized growth results, for comparison:
[
  {
    "compound": "Oc1cccc(O)c1",
    "normalized growth": 0.972
  },
  {
    "compound": "O=C(O)c1cccnc1",
    "normalized growth": 0.98
  },
  {
    "compound": "CCN(CC)CCOCCOC(=O)C1(c2ccccc2)CCCC1",
    "normalized growth": 0.999
  }
]

INPUT: Look up normalized growth for this compound: O=C(NCO)c1cccnc1
OUTPUT: 1.01

INPUT: Report normalized growth for O=C(O)c1ccccc1 please.
OUTPUT: 0.971

INPUT: normalized growth lookup needed for CC(=O)OCC(=O)[C@@]1(O)[C@H](C)CC2C3CCC4=CC(=O)C=C[C@]4(C)[C@@]3(F)[C@@H](O)C[C@@]21C (stereo not given in full) , thanks.
OUTPUT: 0.975

INPUT: Look up normalized growth for this compound: CCN(CC)CCOC(=O)C1(C2CCCCC2)CCCCC1
OUTPUT: 0.978

INPUT: Requested read-out: normalized growth. Entry: CC(=O)c1cc(CC=C(C)C)c(O)c(CC=C(C)C)c1
OUTPUT: 1.01

INPUT: I'd like to know its normalized growth. The compound in question is NC(=O)c1cccnc1
OUTPUT: 0.983

INPUT: # normalized growth lookup, item CC[N+](C)(C)c1cccc(O)c1
OUTPUT: 1.01

Taken from PubChem BioAssay AID1159580.
